Collected IC50 values appear next to each entry.
Target: Carnitine O-palmitoyltransferase 1, liver isoform (Homo sapiens)
Sequence (P50416 whole entry, canonical isoform): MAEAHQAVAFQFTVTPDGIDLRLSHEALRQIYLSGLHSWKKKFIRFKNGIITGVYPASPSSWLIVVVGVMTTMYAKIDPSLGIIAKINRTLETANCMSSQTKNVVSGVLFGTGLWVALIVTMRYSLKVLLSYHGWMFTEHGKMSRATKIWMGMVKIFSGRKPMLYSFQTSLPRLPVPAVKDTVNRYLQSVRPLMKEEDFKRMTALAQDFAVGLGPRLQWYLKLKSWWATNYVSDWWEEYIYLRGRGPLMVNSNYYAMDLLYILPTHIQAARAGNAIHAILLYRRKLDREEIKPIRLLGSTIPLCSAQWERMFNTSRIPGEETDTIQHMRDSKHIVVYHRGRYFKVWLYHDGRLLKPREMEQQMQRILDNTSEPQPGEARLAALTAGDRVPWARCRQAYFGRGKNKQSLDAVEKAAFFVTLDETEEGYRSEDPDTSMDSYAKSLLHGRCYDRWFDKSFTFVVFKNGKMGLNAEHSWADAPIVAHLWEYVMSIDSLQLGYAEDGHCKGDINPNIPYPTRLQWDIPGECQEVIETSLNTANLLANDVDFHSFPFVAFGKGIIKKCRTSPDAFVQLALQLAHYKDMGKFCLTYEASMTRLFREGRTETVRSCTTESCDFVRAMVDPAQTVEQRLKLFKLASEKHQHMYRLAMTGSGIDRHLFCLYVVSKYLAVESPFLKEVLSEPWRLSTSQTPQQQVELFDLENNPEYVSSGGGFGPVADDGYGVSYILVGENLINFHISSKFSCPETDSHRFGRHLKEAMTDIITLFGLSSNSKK
Assay: SUPPLEMENTARY: Inhibition of Carnitine palmitoyltransferase 1, liver isoform
READOUT NAME: IC50 (nM)

>>> measured_number("COc1ccc(Cl)cc1S(=O)(=O)N1CCOc2ccc(C(=O)Nc3ccc(C(=O)O)nc3)cc21")
232
>>> measured_number("CCOC(=O)c1cn2ccc(-c3noc([C@H]4CCCCN4C(=O)COc4ccccc4)n3)cc2n1")
68.1
>>> measured_number("Nc1ncc(Cl)c(-c2nc([C@H]3CCCCN3C(=O)COc3ccccc3)no2)n1")
117
>>> measured_number("Cc1sc([C@H]2CCCCN2C(=O)COc2ccccc2)nc1-c1cccc(C(=O)O)c1")
92.3
>>> measured_number("CN(C)C(=O)CCC(=O)Nc1cc(F)cc(-c2noc([C@H]3CCCCN3C(=O)COc3ccccc3)n2)c1")
111
>>> measured_number("O=C(Nc1ccc(C(=O)O)c(F)c1)c1ccc2c(c1)N(S(=O)(=O)c1cccc(C(F)(F)F)c1)CC2")
167
>>> measured_number("NS(=O)(=O)c1cccc(-c2noc([C@H]3CCCCN3C(=O)COc3ccccc3)n2)c1")
87
>>> measured_number("Cc1cc(C)cc(S(=O)(=O)N2CCOc3ccc(C(=O)Nc4nc(CC(=O)O)cs4)cc32)c1")
42.4
>>> measured_number("COc1ccc(Cl)cc1S(=O)(=O)N1CCOc2ccc(C(=O)Nc3ccc(C(=O)O)c(Cl)c3)cc21")
248

====

Assay: SUPPLEMENTARY: PAMPA permeability assay
Type: physicochemical
Conditions: read-out: Permeability
Collected Papp values appear next to each entry.
READOUT NAME: Papp (×10⁻⁶ cm/s)

>>> measured_number("O=C(Nc1ccc(-c2nnn[nH]2)cc1)c1cccc(NS(=O)(=O)c2cccc(Cl)c2)c1")
0.0275
>>> measured_number("COc1ccc(Cl)cc1CN1C(=O)OC(C)(C)c2ccc(C(=O)Nc3nc(CC(=O)O)cs3)cc21")
1.93
>>> measured_number("O=C([C@H]1CCCCN1C(=O)COc1ccccc1)N1Cc2cc(F)c(OC3CCOCC3)cc2C1")
3.57
>>> measured_number("O=C(O)COc1cccc(-c2noc([C@H]3CCCCN3C(=O)COc3ccccc3)n2)c1")
0.37
>>> measured_number("O=C(COc1ccccc1)N1CCCC[C@@H]1c1nc(-c2ccc3[nH]ncc3c2)n[nH]1")
1.64
>>> measured_number("COc1ccc(Cl)cc1CN1C(=O)C(C)(C)c2ccc(C(=O)Nc3nc(CC(=O)O)cs3)cc21")
0.96
>>> measured_number("O=C(COc1ccccc1)N1CCCC[C@@H]1c1noc(-c2ccc(-n3cncn3)cc2)n1")
2.25
>>> measured_number("COc1cccc2c1CCN(C(=O)[C@H]1CCCCN1C(=O)COc1ccccc1)C2")
5.46
>>> measured_number("COc1ccc(Cl)cc1CN1C(=O)OC(C)(C)c2ccc(C(=O)Nc3ccc(CC(=O)O)c(Cl)c3)cc21")
1.36
>>> measured_number("COc1ccc(Cl)cc1Cn1cc(C(=O)O)c2ccc(C(=O)Nc3ccccc3)cc21")
0.53
>>> measured_number("COc1ccc(Cl)cc1S(=O)(=O)N1CCOc2c(F)cc(C(=O)Nc3ccc(CC(=O)O)cc3)cc21")
2.79
>>> measured_number("O=C1COc2ccc(-c3n[nH]c([C@H]4CCCCN4C(=O)COc4ccccc4)n3)cc2N1")
0.95
>>> measured_number("CNC(=O)c1cncc(-c2noc([C@H]3CCCCN3C(=O)COc3ccccc3)n2)c1")
3.8
>>> measured_number("O=C(COc1ccccc1)N1CCCC[C@@H]1c1csc(-c2ccccn2)n1")
4.83
>>> measured_number("Cn1cc(Sc2cccc(Cl)c2)c2cc(C(=O)Nc3ccc(C(=O)O)cc3)ccc21")
0.13
>>> measured_number("O=C1COc2cc(C#C[C@H]3CCCCN3C(=O)COc3ccccc3)ccc2N1")
1.09
>>> measured_number("COc1ccc(Cl)cc1S(=O)(=O)Nc1cc(C(=O)Nc2ccc(C(=O)O)cc2)cc(OC)c1OC")
1.57
>>> measured_number("COc1ccc(Cl)cc1CN1C(=O)CS(=O)(=O)c2ccc(C(=O)Nc3nc(CC(=O)O)cs3)cc21")
0.85
>>> measured_number("O=C1CNc2ccc(-c3nc([C@H]4CCCCN4C(=O)COc4ccccc4)no3)cc2N1")
1.83

====

Molecular target: Carnitine O-palmitoyltransferase 1, liver isoform (Rattus norvegicus, UniProt P32198)
Sequence (P32198 whole entry, canonical isoform): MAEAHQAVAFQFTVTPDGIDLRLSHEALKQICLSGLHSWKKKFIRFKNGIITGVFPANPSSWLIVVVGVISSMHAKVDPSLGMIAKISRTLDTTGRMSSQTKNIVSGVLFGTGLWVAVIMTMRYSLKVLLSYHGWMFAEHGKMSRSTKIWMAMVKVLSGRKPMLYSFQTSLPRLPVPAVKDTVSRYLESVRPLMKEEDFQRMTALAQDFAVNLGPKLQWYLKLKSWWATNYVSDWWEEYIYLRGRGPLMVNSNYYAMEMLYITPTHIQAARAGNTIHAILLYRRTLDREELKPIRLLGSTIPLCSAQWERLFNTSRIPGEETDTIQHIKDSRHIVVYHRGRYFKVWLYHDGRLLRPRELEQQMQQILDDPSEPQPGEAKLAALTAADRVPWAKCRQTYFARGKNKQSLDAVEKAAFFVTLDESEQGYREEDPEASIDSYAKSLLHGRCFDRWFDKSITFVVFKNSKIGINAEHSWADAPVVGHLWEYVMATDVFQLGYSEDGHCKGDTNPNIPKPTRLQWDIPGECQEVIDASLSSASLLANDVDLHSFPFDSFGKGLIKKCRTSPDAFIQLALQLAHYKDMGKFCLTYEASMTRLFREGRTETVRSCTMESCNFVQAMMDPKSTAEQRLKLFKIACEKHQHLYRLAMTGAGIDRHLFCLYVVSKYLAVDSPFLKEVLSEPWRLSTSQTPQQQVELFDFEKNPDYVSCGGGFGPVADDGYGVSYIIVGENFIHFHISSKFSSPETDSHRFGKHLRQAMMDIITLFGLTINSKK
Assay: SUPPLEMENTARY: Inhibition of Carnitine palmitoyltransferase 1, liver isoform
READOUT NAME: IC50 (nM)

>>> measured_number("COc1ccc(Cl)cc1S(=O)(=O)c1cn(CSC)c2ccc(C(=O)Nc3ccccc3)cc12")
25.2
>>> measured_number("COc1ccc(Cl)cc1S(=O)(=O)N1COc2c(F)cc(C(=O)Nc3ccc(C(=O)O)c(F)c3)cc21")
84.4
>>> measured_number("CCN(c1cc(C(=O)Nc2ncc(CC(=O)O)s2)cc2c1OCO2)S(=O)(=O)c1cc(Cl)ccc1OC")
98.9
>>> measured_number("O=C1CCC(=O)N1c1cc(F)cc(-c2noc([C@H]3CCCCN3C(=O)COc3ccccc3)n2)c1")
386
>>> measured_number("COc1ccc(Cl)cc1S(=O)(=O)Nc1cc(C(=O)Nc2ccccc2)ccc1/C=C/C(=O)O")
79.8
>>> measured_number("CS(=O)(=O)Nc1cccc(-c2n[nH]c([C@H]3CCCCN3C(=O)COc3ccccc3)n2)c1")
175
>>> measured_number("O=C(COc1ccccc1)N1CCCC[C@@H]1c1noc(C2(C(F)(F)F)CC2)n1")
1430
>>> measured_number("Cc1sc([C@H]2CCCCN2C(=O)COc2ccccc2)nc1-c1cccc(C(=O)O)c1")
118
>>> measured_number("COc1ccc(Cl)cc1S(=O)(=O)N(CCC(=O)O)c1cc(C(=O)Nc2ccccc2)cc2c1OCO2")
1720
>>> measured_number("N#Cc1cncc(-c2noc([C@H]3CCCCN3C(=O)COc3ccccc3)n2)c1")
759
>>> measured_number("COc1ccc(Cl)cc1S(=O)(=O)N(C)c1cc(C(=O)Nc2ccc(C(=O)O)cc2)cc2c1OCCO2")
249
>>> measured_number("O=C([C@H]1CCCCN1C(=O)COc1ccccc1)N1CCN(c2ncccn2)CC1")
322
>>> measured_number("COc1ccc(Cl)cc1S(=O)(=O)N1CCc2ccc(C(=O)Nc3ccc(C(=O)O)c(Cl)c3)cc21")
92.6
>>> measured_number("COc1ccc(Cl)cc1S(=O)(=O)N1CC[S+]([O-])c2ccc(C(=O)Nc3ccc(C(=O)O)cc3)cc21 (stereo not drawn)")
36.8
>>> measured_number("COc1ccc(Cl)cc1S(=O)(=O)N1CCc2c(C)cc(C(=O)Nc3ccc(C(=O)O)cc3)cc21")
56
>>> measured_number("COc1ccc(Cl)cc1S(=O)(=O)N1CCc2ccc(C(=O)Nc3ccc(C(=O)O)cc3)cc21")
55
>>> measured_number("COc1ccc(Cl)cc1S(=O)(=O)N1CCCc2ccc(C(=O)Nc3ccc(C(=O)O)cc3)cc21")
32.3

====

Target: Carnitine O-palmitoyltransferase 1, muscle isoform (Homo sapiens, UniProt Q92523)
Sequence (Q92523 whole entry, canonical isoform): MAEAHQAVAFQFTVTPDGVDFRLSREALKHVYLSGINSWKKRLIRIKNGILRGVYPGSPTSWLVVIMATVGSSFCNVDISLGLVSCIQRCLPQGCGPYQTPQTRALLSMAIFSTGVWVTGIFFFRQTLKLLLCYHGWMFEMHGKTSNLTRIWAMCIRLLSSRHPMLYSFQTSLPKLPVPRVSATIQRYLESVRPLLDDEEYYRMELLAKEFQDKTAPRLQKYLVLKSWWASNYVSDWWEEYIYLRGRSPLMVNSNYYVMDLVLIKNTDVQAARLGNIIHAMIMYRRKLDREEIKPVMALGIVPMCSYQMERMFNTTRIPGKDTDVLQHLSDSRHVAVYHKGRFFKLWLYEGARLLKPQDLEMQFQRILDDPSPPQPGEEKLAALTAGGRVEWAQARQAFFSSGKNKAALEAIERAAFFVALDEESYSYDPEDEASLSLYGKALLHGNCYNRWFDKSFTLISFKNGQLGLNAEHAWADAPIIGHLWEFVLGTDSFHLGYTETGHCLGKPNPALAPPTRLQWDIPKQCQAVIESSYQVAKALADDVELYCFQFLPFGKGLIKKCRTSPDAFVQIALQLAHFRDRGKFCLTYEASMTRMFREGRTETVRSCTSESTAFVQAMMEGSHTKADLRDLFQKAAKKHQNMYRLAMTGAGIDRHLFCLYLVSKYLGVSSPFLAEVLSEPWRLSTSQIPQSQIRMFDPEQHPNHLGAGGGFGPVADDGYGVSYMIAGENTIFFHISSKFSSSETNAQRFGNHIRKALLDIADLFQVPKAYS
Test: SUPPLEMENTARY: Inhibition of Carnitine palmitoyltransferase 1, muscle isoform
pIC50: −log10 of the molar value.
READOUT NAME: pIC50

>>> result("O=C(Nc1ccc(C(=O)O)c(F)c1)c1ccc2c(c1)N(S(=O)(=O)c1cccc(C(F)(F)F)c1)CCC2")
5.05
>>> result("CN1CCN(C(=O)COc2ccccc2)[C@@H](c2nc(-c3ccc4[nH]nnc4c3)no2)C1")
"< 4.00"
>>> result("Cn1cc(S(=O)(=O)c2cccc(Cl)c2)c2cc(C(=O)Nc3ccc(C(=O)O)cc3)ccc21")
6.04
>>> result("O=C([C@H]1CCCCN1C(=O)COc1ccccc1)N1Cc2ccc(O[C@@H]3CCOC3)cc2C1")
"< 4.00"
>>> result("NS(=O)(=O)c1ccc(C#C[C@H]2CCCCN2C(=O)COc2ccccc2)cc1")
"< 4.00"
>>> result("COc1ccc(Cl)cc1S(=O)(=O)N1CCNc2ccc(C(=O)Nc3ccc(C(=O)O)cc3)cc21")
4.93
>>> result("COc1ccc(Cl)cc1S(=O)(=O)N1CCOc2ccc(C(=O)Nc3nc(CC(=O)O)cs3)cc21")
6.37
>>> result("COc1ccc(Cl)cc1S(=O)(=O)N1COCc2ccc(C(=O)Nc3ccc(C(=O)O)cc3)cc21")
4.41
>>> result("COc1ccc(Cl)cc1S(=O)(=O)c1cn(CS(C)(=O)=O)c2ccc(C(=O)Nc3ccccc3)cc12")
"< 4.00"
>>> result("O=C1CNc2ccc(-c3nc([C@H]4CCCCN4C(=O)COc4ccccc4)no3)cc2N1")
"< 4.00"
>>> result("COc1ccc(C)cc1S(=O)(=O)n1ccc2ccc(C(=O)Nc3ccc(CC(=O)O)cc3)cc21")
5.81
>>> result("CCN(CC)C(=O)c1ccc(-c2noc([C@H]3CCCCN3C(=O)COc3ccccc3)n2)cc1")
"< 4.00"
>>> result("O=C([C@H]1CCCCN1C(=O)COc1ccccc1)N1CCc2ccc([N+](=O)[O-])cc2C1")
"< 4.00"
>>> result("Cc1cc(-c2nc([C@H]3CCCCN3C(=O)COc3ccccc3)no2)on1")
"< 4.00"
>>> result("O=C([C@H]1CCCCN1C(=O)COc1ccccc1)N1CCN(c2ccccn2)CC1")
"< 4.00"
>>> result("CC(=O)Nc1cccc(C#C[C@H]2CCCCN2C(=O)COc2ccccc2)c1")
"< 4.00"
>>> result("O=C1CCCN1c1cccc(-c2noc([C@H]3CCCCN3C(=O)COc3ccccc3)n2)c1")
"< 4.00"
>>> result("O=C(O)Cc1ccc(NC(=O)c2ccc3c(c2)N(S(=O)(=O)c2cccc(Cl)c2)CC3)cc1")
5.35
>>> result("COc1ccc(Cl)cc1S(=O)(=O)N1C[C@H](C(=O)O)Oc2ccc(C(=O)Nc3ccccc3)cc21")
4.50
>>> result("Nc1cccc(-c2n[nH]c([C@H]3CCCCN3C(=O)COc3ccccc3)n2)c1")
"< 4.00"
>>> result("O=C(COc1ccccc1)N1CCCC[C@@H]1c1noc(-c2cccc(-n3cn[nH]c3=O)c2)n1")
"< 4.00"
>>> result("COc1ccc(Cl)cc1S(=O)(=O)N1CCOc2c(F)cc(C(=O)Nc3ccc(C(=O)O)c(F)c3)cc21")
5.34
>>> result("O=C(O)c1ccc(NC(=O)c2ccc3ccn(S(=O)(=O)c4cccc(Cl)c4)c3c2)cc1")
4.58
>>> result("COc1ccc(Cl)cc1S(=O)(=O)N1CCCCc2ccc(C(=O)Nc3ccc(C(=O)O)c(F)c3)cc21")
5.04
>>> result("COc1ccc(Cl)cc1S(=O)(=O)N(C)c1cc(C(=O)Nc2ccn(CC(=O)O)n2)cc2c1OCO2")
5.37
>>> result("NS(=O)(=O)c1ccc2c(c1)CN(C(=O)[C@H]1CCCCN1C(=O)COc1ccccc1)CC2")
"< 4.00"
>>> result("O=C(COc1ccccc1)N1CCCC[C@@H]1c1noc(-c2cc([N+](=O)[O-])[nH]n2)n1")
"< 4.00"
>>> result("N#Cc1ccc(-c2csc([C@H]3CCCCN3C(=O)COc3ccccc3)n2)cc1")
"< 4.00"
>>> result("O=C1Nc2ccc(-c3noc([C@H]4CCCCN4C(=O)COc4ccccc4)n3)cc2CO1")
"< 4.00"
>>> result("COc1ccc(Cl)cc1S(=O)(=O)N(c1cc(C(=O)Nc2ncc(CC(=O)O)s2)cc2c1OCO2)C(C)C")
6.09
>>> result("O=C(COc1ccccc1)N1CCCC[C@@H]1c1nc(-c2cccc(F)c2)n[nH]1")
"< 4.00"
>>> result("CCn1c(C)nc(Cl)c1-c1noc([C@H]2CCCCN2C(=O)COc2ccccc2)n1")
"< 4.00"
>>> result("O=C(COc1ccccc1)N1CCNC[C@@H]1c1nc(-c2ccc3[nH]cnc3c2)no1")
"< 4.00"
>>> result("O=C(COc1ccccc1)N1CCCC[C@@H]1c1nc(-c2cccs2)n[nH]1")
"< 4.00"
>>> result("COc1ccc(Cl)cc1S(=O)(=O)N1CCOc2c(Cl)cc(C(=O)Nc3nc(CC(=O)O)cs3)cc21")
5.93
>>> result("O=C(COc1ccccc1)N1CCCC[C@@H]1c1csc(-c2ccccn2)n1")
"< 4.00"
>>> result("O=C1CN(c2cccc(-c3nc([C@H]4CCCCN4C(=O)COc4ccccc4)no3)c2)C(=O)N1")
"< 4.00"

Cited source for all entries: ChEMBL document CHEMBL3431459
